Could you please report measured inhibition for the items listed next?
Target: Human immunodeficiency virus type 1 reverse transcriptase (Human immunodeficiency virus 1) (UniProt Q72547)
Test Description: Inhibition of Human immunodeficiency virus 1 RT assessed at 20 ug after 1 hr by spectrophotometric analysis
Provide only the numeric value, understood in %.

Query: What does the data say about its inhibition? Entry: COc1ccc(OC)c2c1c(C(=O)/C=C(\O)C(=O)O)cn2Cc1ccc(Cl)cc1Cl
Reply: 82.8

Query: Could you do the same for CCOC(=O)/C(O)=C/C(=O)c1cn(Cc2ccc(Cl)cc2Cl)c2ccc(OC)c(OC)c12 , please?
Reply: 87.7

Query: Could you do the same for CCOC(=O)/C(O)=C/C(=O)c1cn(Cc2ccc(Cl)cc2Cl)c2cc(OC)c(OC)cc12 , please?
Reply: 80.9

Query: Could you do the same for COc1cc(OC)c2c(C(=O)/C=C(\O)C(=O)O)cn(Cc3ccc(Cl)cc3Cl)c2c1 , please?
Reply: 79.2

Query: Could you do the same for COc1cc2c(C(=O)/C=C(\O)C(=O)O)cn(Cc3ccc(Cl)cc3Cl)c2cc1OC , please?
Reply: 78.6

Query: Could you do the same for COc1ccc2c(c(C(=O)/C=C(\O)C(=O)O)cn2Cc2ccc(Cl)cc2Cl)c1OC , please?
Reply: 78.2

Query: Could you do the same for CCOC(=O)/C(O)=C/C(=O)c1cn(Cc2ccc(Cl)cc2Cl)c2c(OC)ccc(OC)c12 , please?
Reply: 86.5

Query: Could you do the same for CCOC(=O)/C(O)=C/C(=O)c1cn(Cc2ccc(Cl)cc2Cl)c2cc(OC)cc(OC)c12 , please?
Reply: 87.6
